- experimental target: human PKCθ full length enzyme (Homo sapiens, UniProt Q04759)
- Construct: human PKCθ full length enzyme (Panvera Cat# P2996); purchased Panvera P2996
- Sequence (Q04759 whole entry): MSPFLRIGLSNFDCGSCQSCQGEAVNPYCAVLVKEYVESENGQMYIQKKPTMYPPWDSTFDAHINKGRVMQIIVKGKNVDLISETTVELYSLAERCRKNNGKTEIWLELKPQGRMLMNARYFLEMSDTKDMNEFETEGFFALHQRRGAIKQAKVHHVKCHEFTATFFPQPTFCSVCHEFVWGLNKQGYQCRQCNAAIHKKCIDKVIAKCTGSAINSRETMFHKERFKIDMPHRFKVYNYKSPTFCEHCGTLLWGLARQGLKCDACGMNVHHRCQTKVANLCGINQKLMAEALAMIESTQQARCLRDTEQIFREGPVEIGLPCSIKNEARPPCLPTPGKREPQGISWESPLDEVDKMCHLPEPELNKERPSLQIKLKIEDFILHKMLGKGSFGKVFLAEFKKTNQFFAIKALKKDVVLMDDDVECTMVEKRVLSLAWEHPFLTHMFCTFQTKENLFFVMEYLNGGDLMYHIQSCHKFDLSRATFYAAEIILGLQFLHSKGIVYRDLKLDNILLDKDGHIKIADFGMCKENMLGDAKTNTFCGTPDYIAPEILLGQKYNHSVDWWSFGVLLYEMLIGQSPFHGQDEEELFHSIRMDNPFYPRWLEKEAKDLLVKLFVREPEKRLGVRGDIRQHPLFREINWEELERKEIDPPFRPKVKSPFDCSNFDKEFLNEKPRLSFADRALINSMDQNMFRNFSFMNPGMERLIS
- procedure summary: PKCθ IMAP assay (fluorescence polarization)
- Type: biochemical
- recorded conditions: human PKCθ full length enzyme, IMAP; average value; read-out: IC50 PKCθ IMAP
- Description: The reaction buffer was prepared by diluting the 5× stock reaction buffer and adding DTT to obtain a concentration of 3.0 mM. […] The final concentration of compound was 2× and 10% DMSO. DMSO was added to the rest of the master mix to increase the concentration to 10%. 10 μl of the master mix containing 10% DMSO was added to the rest of the wells on the plate except the 2nd column. […] FP was measured using Envision2100 (PerkinElmer Life Sciences). […]
pIC50: −log10 of the molar value.
metric: pIC50

molecule	pIC50
Cc1c(Nc2c(C#N)cncc2-c2cnc(C=O)n2C)ccc2[nH]ccc12 [Compound 537]	7.64

1: Cc1c(Nc2c(C#N)cncc2-c2ccc(OCCCN3CCOCC3)cc2)ccc2[nH]ccc12 [Compound 473]
2: COCCOc1ccc(-c2cncc(C#N)c2Nc2cnc3[nH]ccc3c2Cl)cc1OC [Compound 492]
3: Cc1c(Nc2c(C#N)cncc2-c2ccccc2CN(C)C)ccc2[nH]ccc12 [Compound 550]
stdin: // ascending sort on recorded pIC50 List the labels in the requested order.
stdout: 3, 2, 1

* * *

- experimental target: human PKCθ full length enzyme (Homo sapiens, UniProt Q04759)
- Construct: human PKCθ full length enzyme (Panvera Cat# P2996); purchased Panvera P2996
- procedure summary: PKCθ IMAP assay (fluorescence polarization)
- Type: biochemical
- recorded conditions: human PKCθ full length enzyme, IMAP; average value; read-out: IC50 PKCθ IMAP
metric: IC50 (nM)

Look over these answered cases.
compound	metric	val
CN(C)c1ccc(-c2cncc(C#N)c2Nc2cc(O)[nH]n2)cc1 [Compound 294]	IC50	33400
COc1ccccc1-c1cncc(C#N)c1Nc1cccc2[nH]ccc12 [Compound 324]	IC50	20
N#Cc1cncc(-c2cc3cc(CNCCN4CCOCC4)ccc3s2)c1Nc1cccc2[nH]ccc12 [Compound 282]	IC50	3
N#Cc1cncc(-c2cccc(-c3ncccn3)c2)c1Nc1ccc2[nH]ccc2c1 [Compound 138]	IC50	190
COc1ccc(-c2cncc(C#N)c2Nc2ccc3[nH]ccc3c2)cc1OCCNc1nnc(C)s1 [Compound 183]	IC50	70
COc1ccc(-c2cncc(C#N)c2Nc2ccc3[nH]ccc3c2)cc1OCCNCc1ccncc1 [Compound 240]	IC50	80
COc1ccc(-c2cncc(C#N)c2Nc2ccc3[nH]ccc3c2)cc1OCCNCCc1ccncc1 [Compound 253]	IC50	50
CN1CCN(Cc2ccc3oc(-c4cncc(C#N)c4Nc4ccc5[nH]ccc5c4)cc3c2)CC1 [Compound 485]	IC50	5
Cc1c(Nc2c(C#N)cncc2-c2ccc(OCCN3CCN(CCO)CC3)cc2)ccc2[nH]ccc12 [Compound 427]	IC50	14
CN1CCN(CCOc2cccc(-c3cncc(C#N)c3Nc3cccc4[nH]ccc34)c2)CC1 [Compound 168]	IC50	20

a: N#Cc1cncc(-c2cc3cc(CNC4CC4)ccc3s2)c1Nc1cccc2[nH]ccc12 [Compound 278]
b: Cc1c(Nc2c(C#N)cncc2-c2cccc(CN3CCN(C)CC3)c2)ccc2[nH]ccc12 [Compound 454]
c: COCCOc1ccc(-c2cncc(C#N)c2Nc2cccc3[nH]ccc23)cc1OC [Compound 159]
d: COc1cccc(-c2cncc(C#N)c2Nc2ccc3[nH]ncc3c2)c1 [Compound 295]
e: COCCOc1ccc(-c2cncc(C#N)c2Nc2ccc3[nH]ccc3c2C)cc1 [Compound 482]
stdin: // ascending sort on recorded IC50 List the labels in the requested order.
stdout: a, b, e, c, d
(a: 2 nM, b: 3 nM, e: 11 nM, c: 16 nM, d: 2950 nM)

Where these numbers come from: patent US7781591B2
